Data provenance is patent US6355799B1.

Tested on: upland rice (Oryza sp., var. Tebonnet, RICE)
Assay: Post-emerge test, crop safety
Assay type: in vivo
Settings: post-emerge, 250 g ai/ha, 14 days after application, rating scale 0-100
Entries and their phytotoxicity rating RICE
Give the figure by itself; no unit, no explanation.

Worked cases, answers included:
// map `COc1c(Cl)cc(F)c(-n2c(=O)cc(C(F)(F)F)n(C)c2=O)c1N(C(=O)C=Cc1ccccc1Cl)C(=O)C=Cc1ccccc1Cl` to recorded phytotoxicity rating RICE (system: upland rice (Oryza sp., var. Tebonnet, RICE))
0

// map `COc1c(Cl)cc(F)c(-n2c(=S)cc(C(F)(F)F)n(C)c2=O)c1NC(=S)c1ccc(F)cc1F` to recorded phytotoxicity rating RICE (system: upland rice (Oryza sp., var. Tebonnet, RICE))
30

// map `Cc1c(Cl)cc(F)c(-n2c(=O)cc(C(F)(F)F)n(C)c2=O)c1NC(=O)C=Cc1ccccc1` to recorded phytotoxicity rating RICE (system: upland rice (Oryza sp., var. Tebonnet, RICE))
70

// map `COc1c(Cl)cc(F)c(-n2c(=O)cc(C(F)(F)F)n(C)c2=O)c1NC(=O)C=Cc1ccccc1` to recorded phytotoxicity rating RICE (system: upland rice (Oryza sp., var. Tebonnet, RICE))
65

Note: attention shifts to another entry.
// map `CCOC(=O)C(=O)Nc1c(OC)c(Cl)cc(F)c1-n1c(=O)cc(C(F)(F)F)n(C)c1=O` to recorded phytotoxicity rating RICE (system: upland rice (Oryza sp., var. Tebonnet, RICE))
10

====

Tested on: field corn (Zea mays L., var. Dekalb 535, CORN)
Assay: Post-emerge test, crop safety
Type: in vivo
Settings: post-emerge, 250 g ai/ha, 14 days after application, rating scale 0-100
Entries and their CORN phytotoxicity rating (crop damage)
Give the figure by itself; no unit, no explanation.

Worked cases, answers included:
For COc1c(Cl)cc(F)c(-n2c(=O)cc(C(F)(F)F)n(C)c2=O)c1NC(=O)COc1ccc(F)cc1 [2-133] , what is its reported CORN phytotoxicity rating (crop damage)?
95

For CCCSCC(=O)Nc1c(OC)c(Cl)cc(F)c1-n1c(=O)cc(C(F)(F)F)n(C)c1=O [2-174] , what is its reported CORN phytotoxicity rating (crop damage)?
25

For COc1c(Cl)cc(F)c(-n2c(=O)cc(C(F)(F)F)n(C)c2=O)c1NC(=O)c1c(C)cccc1C [2-124] , what is its reported CORN phytotoxicity rating (crop damage)?
5

For COc1c(Cl)cc(F)c(-n2c(=O)cc(C(F)(F)F)n(N)c2=O)c1NC(=O)C=Cc1ccccc1 [2-185] , what is its reported CORN phytotoxicity rating (crop damage)?
5

For COc1c(Cl)cc(F)c(-n2c(=O)cc(C(F)(F)F)n(C)c2=O)c1NC(=O)COc1ccc(Cl)cc1Cl [2-154] , what is its reported CORN phytotoxicity rating (crop damage)?
85

For COc1c(Cl)cc(F)c(-n2c(=O)cc(C(F)(F)F)n(C)c2=O)c1NC(=O)c1ccc2cccc(F)c2c1 [2-161] , what is its reported CORN phytotoxicity rating (crop damage)?
20

Note: attention shifts to another entry.
For CCOC(=O)C(C)SCC(=O)Nc1c(OC)c(Cl)cc(F)c1-n1c(=O)cc(C(F)(F)F)n(C)c1=O (stereo not shown) [2-171] , what is its reported CORN phytotoxicity rating (crop damage)?
10
